procedureText: AMES test (reverse mutagenicity test), strain TA98, with and without S-9
Format: cell-based
settings: s9, TA98, without S9, 20 μg/plate; read-out: magnification of the total number of the mutant colony to the control
Use 0.9 as the dividing line for fold induction, with the line itself on the label 1 side and lower values as label 0.

Past entries and their recorded results:
[
  {
    "structureNotation": "Nc1ccc(N=Nc2ccc(C3(c4ccc(N=Nc5c(S(=O)(=O)O)cc6cc(S(=O)(=O)O)c(N=Nc7ccccc7)c(O)c6c5N)cc4)CCCCC3)cc2)c(O)c1",
    "labelValue": "label 1"
  },
  {
    "structureNotation": "CCCCc1ccc(N=Nc2c(S(=O)(=O)O)cc3cc(S(=O)(=O)O)c(N=Nc4ccc(C5(c6ccc(N=Nc7ccc(N(C)C)cc7C(=O)O)cc6)CCCCC5)cc4)c(N)c3c2O)cc1",
    "labelValue": "label 0"
  },
  {
    "structureNotation": "Cc1ccc(N=Nc2c(S(=O)(=O)O)cc3cc(S(=O)(=O)O)c(N=Nc4ccc(C5(c6ccc(N=Nc7ccc(N)cc7O)cc6)CCCCC5)cc4)c(N)c3c2O)cc1",
    "labelValue": "label 1"
  }
]

Next item in the queue.
input: Does CCCCc1ccc(N=Nc2c(S(=O)(=O)O)cc3cc(S(=O)(=O)O)c(N=Nc4ccc(C5(c6ccc(N=Nc7ccc(N(C)C)cc7O)cc6)CCCCC5)cc4)c(N)c3c2O)cc1 have a reported fold induction of at least 0.9?
output: label 0

----------
procedureText: AMES test (reverse mutagenicity test), strain TA98, with and without S-9
Assay type: cell-based
settings: s9, TA98, without S9, 5000 μg/plate; read-out: magnification of the total number of the mutant colony to the control
We label by threshold. Values of fold induction strictly beneath 0.7 are label 1. Values of 0.7 and up are label 0.

Solved cases below.
[
  {
    "structureNotation": "CCCCc1ccc(N=Nc2c(S(=O)(=O)O)cc3cc(S(=O)(=O)O)c(N=Nc4ccc(C5(c6ccc(N=Nc7ccc(O)cc7O)cc6)CCCCC5)cc4)c(N)c3c2O)cc1",
    "labelValue": "label 1"
  },
  {
    "structureNotation": "CCCCc1ccc(N=Nc2c(S(=O)(=O)O)cc3cc(S(=O)(=O)O)c(N=Nc4ccc(C5(c6ccc(N=Nc7ccc(N(C)C)cc7O)cc6)CCCCC5)cc4)c(N)c3c2O)cc1",
    "labelValue": "label 1"
  },
  {
    "structureNotation": "CCCCc1ccc(N=Nc2c(S(=O)(=O)O)cc3cc(S(=O)(=O)O)c(N=Nc4ccc(C5(c6ccc(N=Nc7ccc(N)cc7O)cc6)CCCCC5)cc4)c(N)c3c2O)cc1",
    "labelValue": "label 1"
  },
  {
    "structureNotation": "Nc1ccc(N=Nc2ccc(C3(c4ccc(N=Nc5c(S(=O)(=O)O)cc6cc(S(=O)(=O)O)c(N=Nc7ccccc7)c(O)c6c5N)cc4)CCCCC3)cc2)c(O)c1",
    "labelValue": "label 0"
  },
  {
    "structureNotation": "CCCCc1ccc(N=Nc2c(S(=O)(=O)O)cc3cc(S(=O)(=O)O)c(N=Nc4ccc(C5(c6ccc(N=Nc7ccc(N(CC)CC)cc7C)cc6)CCCCC5)cc4)c(N)c3c2O)cc1",
    "labelValue": "label 0"
  }
]

input: Does this compound meet the criterion fold induction < 0.7? CC(C)c1ccc(N=Nc2c(S(=O)(=O)O)cc3cc(S(=O)(=O)O)c(N=Nc4ccc(C5(c6ccc(N=Nc7ccc(N)cc7O)cc6)CCCCC5)cc4)c(N)c3c2O)cc1
output: label 1

input: Just wondering, is fold induction of Cc1ccc(N=Nc2c(S(=O)(=O)O)cc3cc(S(=O)(=O)O)c(N=Nc4ccc(C5(c6ccc(N=Nc7ccc(N)cc7O)cc6)CCCCC5)cc4)c(N)c3c2O)cc1 below 0.7?
output: label 0

The values you see were collected from patent US5486601A.
